The reported measurements were obtained from patent US20150118215A1.

- EXPERIMENTAL TARGET: cytohesin-2 (Homo sapiens)
- Construct: steady-state enzymatic GEF-activity analysis of full-length cytohesin-2 or Sec7 domain with Arf1 and Arf6; made in house; host or cells: E. coli BL21DE3
- Sequence (Q99418 whole entry, the tested form may be a part): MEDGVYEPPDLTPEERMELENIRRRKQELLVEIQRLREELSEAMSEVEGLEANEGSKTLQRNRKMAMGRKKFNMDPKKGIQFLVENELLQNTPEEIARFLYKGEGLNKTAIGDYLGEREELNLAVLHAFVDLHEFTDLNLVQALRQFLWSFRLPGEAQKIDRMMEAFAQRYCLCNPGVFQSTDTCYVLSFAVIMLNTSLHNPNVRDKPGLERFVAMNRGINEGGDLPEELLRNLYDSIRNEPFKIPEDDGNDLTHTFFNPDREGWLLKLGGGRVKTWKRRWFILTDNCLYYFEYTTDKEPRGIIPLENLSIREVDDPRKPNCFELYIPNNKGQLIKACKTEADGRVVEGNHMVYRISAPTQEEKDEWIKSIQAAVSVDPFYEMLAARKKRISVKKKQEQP
- ASSAY REMARKS: Radiolabel-based GEF-activity assay ([35S]-GTPγS binding) of full-length cytohesin-2 with myr-Arf1 or myr-Arf6
- Type: biochemical
- STATED CONDITIONS: myr-Arf1 as substrate; azolectin; read-out: IC50, inhibition of enzymatic GEF-activity of cytohesin-2 with myr-Arf1
ASSAY READOUT: IC50

Response field IC50 (cytohesin-2 (Homo sapiens)) for item "COc1nc(-c2ccc3c(c2)OCO3)n(-c2ccc(NC(=O)CSc3ccccc3)cc2)n1" : > 150 µM
